Tested on: LNCaP
Test: Cytotoxic activity against human LNCAP cells after 24 hrs by MTT assay
Type: functional, cell-based
pIC50: −log10 of the molar value.

[
  {
    "Molecule smiles": "C[C@]12CC[C@H]3[C@@H](CC=C4C[C@@H](O)CC[C@@]43C)[C@@H]1CC[C@@H]2C(=O)C#Cc1cccc(F)c1",
    "pIC50": 4.83
  },
  {
    "Molecule smiles": "COc1ccc(C#CC(=O)[C@H]2CC[C@H]3[C@@H]4CC=C5C[C@@H](O)CC[C@]5(C)[C@H]4CC[C@]23C)cc1",
    "pIC50": "< 4.30"
  },
  {
    "Molecule smiles": "Cc1cc(C)c(C#CC(=O)[C@H]2CC[C@H]3[C@@H]4CC=C5C[C@@H](O)CC[C@]5(C)[C@H]4CC[C@]23C)cc1C",
    "pIC50": "< 4.30"
  }
]

* * *

Tested on: LNCaP
Assay: Cytotoxic activity against human LNCAP cells after 24 hrs by MTT assay
Type: functional, cell-based
pIC50: −log10 of the molar value.

[
  {
    "Molecule smiles": "C[C@]12CC[C@H]3[C@@H](CC=C4C[C@@H](O)CC[C@@]43C)[C@@H]1CC[C@@H]2C(=O)C#Cc1ccc(F)cc1",
    "Study target": "LNCaP",
    "Readout qualifier": "=",
    "pIC50": 4.91
  },
  {
    "Molecule smiles": "COc1ccc(C#CC(=O)[C@H]2CC[C@H]3[C@@H]4CC=C5C[C@@H](O)CC[C@]5(C)[C@H]4CC[C@]23C)c(C)c1",
    "Study target": "LNCaP",
    "Readout qualifier": "=",
    "pIC50": 4.38
  },
  {
    "Molecule smiles": "C[C@]12CC[C@H](O)CC1=CC[C@@H]1[C@@H]2CC[C@]2(C)C(=O)CC[C@@H]12",
    "Study target": "LNCaP",
    "Readout qualifier": "<",
    "pIC50": 4.30
  },
  {
    "Molecule smiles": "C[C@]12CC[C@H]3[C@@H](CC=C4C[C@@H](O)CC[C@@]43C)[C@@H]1CC[C@@H]2C(=O)C#Cc1cccc(C(F)(F)F)c1",
    "Study target": "LNCaP",
    "Readout qualifier": "=",
    "pIC50": 4.58
  },
  {
    "Molecule smiles": "Cc1cc(C#CC(=O)[C@H]2CC[C@H]3[C@@H]4CC=C5C[C@@H](O)CC[C@]5(C)[C@H]4CC[C@]23C)ccc1F",
    "Study target": "LNCaP",
    "Readout qualifier": "<",
    "pIC50": 4.30
  },
  {
    "Molecule smiles": "C#Cc1cccc(C#CC(=O)[C@H]2CC[C@H]3[C@@H]4CC=C5C[C@@H](O)CC[C@]5(C)[C@H]4CC[C@]23C)c1",
    "Study target": "LNCaP",
    "Readout qualifier": "=",
    "pIC50": 4.72
  },
  {
    "Molecule smiles": "C[C@]12CC[C@H]3[C@@H](CC=C4C[C@@H](O)CC[C@@]43C)[C@@H]1CC[C@@H]2C(=O)C#Cc1ccccc1C(F)(F)F",
    "Study target": "LNCaP",
    "Readout qualifier": "=",
    "pIC50": 5.10
  }
]
